- EXPERIMENT_DESCRIPTION: NCI Yeast Anticancer Drug Screen. Data for the sgs1 mgt1 strain (AID 161);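 note: 0% = growth of cultures given vehicle only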
- COND: S. cerevisiae sgs1 mgt1 strain, at 50.0 µM, hits give high values
- Experimental: Growth inhibition of yeast strains with defined genetic alterations is measured as a screen for potential anti-cancer activity. Selected strains with alterations in DNA damage repair or cell cycle control were exposed to compounds and growth inhibition was measured relative to vehicle treated controls. The strain used in this assay is sgs1 mgt1
Compounds without any hit were thinned out: in the full panel of roughly 79,000, 15% have a hit.
ASSAY_ENDPOINT: growth inhibition (%)
Answers are plain numbers, in %.

Solved entries:
| COMPOUND | REPORTED |
| --- | --- |
| CCOC(=O)C(CCCOC1CCCCO1)(C(=O)CC)c1ccccc1 (centres undefined) (tested in a mixture with another compound) | -6.25 |
| Cc1cc2nc(CC(=O)c3cccnc3)c(=O)[nH]c2cc1C | 12.4 |
| CC(=O)/C=C(/C=N/O)c1ccccc1 | 14.2 |
| CCCC(C)C(=O)OCCOCC (centres undefined) | -1.5 |
| CCCC1(C)COC(/C=C/c2ccccc2)OC1 (centres undefined) | -8.3 |

Hi team, please reply with growth inhibition for each item in this list.
1. CS/C1=C(\c2ccc(C)cc2)N(c2ccccc2)C(=O)C(=O)N(c2ccccc2)/C(c2ccc(C)cc2)=C(/SC)SS1
2. C[N+](C)(C)CCCSc1nc2ccccc2[nH]1

Response:
[2.9, -52]

Hi team, please reply with growth inhibition for each item in this list.
1. CCC1CN2CCc3cc(OC)c(OC)cc3C2CC1CCCl (centres undefined)
2. CSCCC(O)C(=O)O (centres undefined)
3. O=C(O)CCCC[P+](c1ccccc1)(c1ccccc1)c1ccccc1
4. COc1ccccc1/C=N/NS(=O)(=O)c1ccc(NC(C)=O)cc1
5. C/C(=N/NC(=O)NN)c1cccc(O)c1

Response:
[-4.5, 19.5, 13.5, 14.1, -16.6]

----------
- EXPERIMENT_DESCRIPTION: NCI Yeast Anticancer Drug Screen. Data for the rad50 strain (AID 155);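 note: 0% = growth of vehicle-only cultures of the same strain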
- COND: S. cerevisiae rad50 strain growth inhibition; at 50.0 µM; hits give high values
About 79,000 compounds went through this panel and 15% of them were active in at least one assay; those are over-represented in the sample as a whole.
ASSAY_ENDPOINT: growth inhibition (%)
Give bare numbers, in %.

Solved entries:
| COMPOUND | ASSAY_ENDPOINT | REPORTED |
| --- | --- | --- |
| C=Cc1ccc(C[n+]2cccc(C(N)=O)c2)cc1 | growth inhibition | -15.2 |
| O=C(O)c1sccc1-c1cccc2ccccc12 | growth inhibition | 0.5 |
| Clc1ccccc1C(Cl)c1ccccc1 (configuration not stated) | growth inhibition | 3.3 |

Hi team, please reply with growth inhibition for each item in this list.
1. CC[n+]1ccnc2ccccc21
2. COC(=O)c1cc2ccc1OCC#CC#CCOc1ccc(cc1C(=O)OC)OCC#CC#CCO2
3. CC1=CC(C)(C)NC(=S)N1c1ccc(O)cc1
4. Oc1c(/N=N/C(=S)NCCCN2CCN(CCCNC(=S)/N=N/c3[nH]c4ccccc4c3O)CC2)[nH]c2ccccc12
5. Cc1cccc(C(=O)NN)c1O
6. N#CC1C(=O)NC(=O)C(C#N)C12CCCC2 (configuration not stated)

Response:
[-11.6, -1.9, 0, 22.8, -1.7, -3.65]

Hi team, please reply with growth inhibition for each item in this list.
1. CCOC(=O)CC(C#N)C(C)C(=O)OCC (configuration not stated)
2. COc1cc2c(cc1OC)[C@H]1C(COC(=O)c3ccccc3)CSC(=Nc3ccccc3)N1CC2 (some centres not stated)
3. O=[N+]([O-])c1ccc2nc(C(F)(F)F)cc(Cl)c2c1
4. COc1ccccc1/C=C1\C(=O)N(C(=O)Cc2ccccc2)N=C1C
5. CSCCC(NC(=O)OC(C)(C)C)C(=O)NCCNc1ccc(NCCNC(=O)C(CCSC)NC(=O)OC(C)(C)C)c2c1C(=O)c1ccccc1C2=O (configuration not stated)

Response:
1. 2.3
2. 21.9
3. 7.35
4. -4.4
5. 19.4

Hi team, please reply with growth inhibition for each item in this list.
1. O=C(O)CSCc1cc2c(O)c(c1)Cc1cc(CSCC(=O)O)cc(c1O)Cc1cc(CSCC(=O)O)cc(c1O)Cc1cc(CSCC(=O)O)cc(c1O)C2
2. CC(C)CCCC(C)C1CCC2C(CC(=O)O)C(C3(C)CCC(O)CC3=O)CCC2(C)C1 (configuration not stated)
3. CCOC(=O)C(NC(=O)CC)(Nc1ccc(S(=O)(=O)Nc2ncccn2)cc1)C(F)(F)F (configuration not stated)
4. N#CCc1ccc(-c2ccccc2)cc1

Response:
[-6.9, 23.9, -19.4, -2.75]

Hi team, please reply with growth inhibition for each item in this list.
1. O=c1[nH]nc(SCc2ccccc2)c(=O)n1C(c1ccccc1)c1ccccc1
2. CCCCCCCCCSCCOC(=S)N(C)C
3. COc1ccccc1NC(=S)N1CCC(CCCC2CCN(C(=S)Nc3ccccc3OC)CC2)CC1
4. Cc1nc2ccccn2c1N=Nc1ccc(C(=O)NN)cc1

Response:
1. 26.4
2. 13.7
3. -30.3
4. 7.3
